Test: Thermal stability of aqueous solution kept at 50° C., HPLC
Format: physicochemical
Details: 0.5% (w/v) aqueous solution, pH about 6.3-7.2, 50° C. for 90 days
Test Readout: decomposed by warming

Example results:
Cc1ncc(CO)c(CN)c1O.Cl [pyridoxamine hydrochloride, reference compound]	~85%
Cc1ncc(CO)c(CO)c1O[C@@H]1O[C@H](CO)[C@H](O)[C@H](O)[C@H]1O [pyridoxine 3-β-D-galactoside, Pyridoxine 3-β-D-galactoside]	almost no decomposition
Cc1ncc(CO)c(C=O)c1O[C@@H]1O[C@H](CO)[C@@H](O)[C@H](O)[C@H]1O [pyridoxal 3-β-D-glucoside, Pyridoxal 3-β-D-glucoside]	almost no decomposition
Cc1ncc(CO)c2c1OP(=O)([O-])OC2.[Na+] [pyridoxine 3,4′-cyclic sodium phosphate, Pyridoxine 3,4′-cyclic sodium phosphate]	almost no decomposition
Cc1ncc(CO)c(CN)c1O[C@@H]1O[C@H](CO)[C@@H](O)[C@H](O)[C@H]1O [pyridoxamine 3-β-D-glucoside, Pyridoxamine 3-β-D-glucoside]	almost no decomposition

**Query** Quick one: decomposed by warming of Cc1ncc(CO)c(CO)c1O[C@@H]1O[C@H](CO)[C@@H](O)[C@H](O)[C@H]1O [pyridoxine 3-β-D-glucoside, Pyridoxine 3-β-D-glucoside] ?
**Result** almost no decomposition

**Query** Quick one: decomposed by warming of Cc1ncc(CO)c(C=O)c1O.Cl [pyridoxal hydrochloride, reference compound] ?
**Result** ~55%

**Query** Quick one: decomposed by warming of Cc1ncc(CO)c(CO)c1O[C@@H]1O[C@H](CO)[C@@H](O)[C@H](O)[C@H]1O.Cl [pyridoxine 3-β-D-glucoside hydrochloride] ?
**Result** almost no decomposition

====

Test: Thermal stability of aqueous solution kept at 50° C., HPLC
Assay type: physicochemical
Settings: 0.5% (w/v) aqueous solution, 50° C. for 90 days
Test Readout: coloring of the aqueous solution after the warming

Example results:
Cc1ncc(CO)c(C=O)c1O[C@@H]1O[C@H](CO)[C@@H](O)[C@H](O)[C@H]1O [pyridoxal 3-β-D-glucoside, Pyridoxal 3-β-D-glucoside]	no coloring was observed
Cc1ncc(CO)c(CN)c1O[C@@H]1O[C@H](CO)[C@@H](O)[C@H](O)[C@H]1O [pyridoxamine 3-β-D-glucoside, Pyridoxamine 3-β-D-glucoside]	no coloring was observed
Cc1ncc(CO)c(CN)c1O.Cl [pyridoxamine hydrochloride, reference compound]	colored in yellow
Cc1ncc(CO)c(C=O)c1O.Cl [pyridoxal hydrochloride, reference compound]	colored in yellow
Cc1ncc(CO)c(CO)c1O[C@@H]1O[C@H](CO)[C@@H](O)[C@H](O)[C@H]1O [pyridoxine 3-β-D-glucoside, Pyridoxine 3-β-D-glucoside]	no coloring was observed

Field: next molecule
**Query** Quick one: coloring of the aqueous solution after the warming of Cc1ncc(CO)c(CO)c1O.Cl [pyridoxine hydrochloride] ?
**Result** colored in yellow

====

Assay: Thermal stability of aqueous solution kept at 50° C., HPLC
Assay type: physicochemical
Conditions: 0.5% (w/v) aqueous solution, 50° C. for 90 days
Test Readout: coloring of the aqueous solution after the warming

Cc1ncc(CO)c(CO)c1O[C@@H]1O[C@H](CO)[C@H](O)[C@H](O)[C@H]1O [pyridoxine 3-β-D-galactoside, Pyridoxine 3-β-D-galactoside]	no coloring was observed
Cc1ncc(CO)c2c1OP(=O)([O-])OC2.[Na+] [pyridoxine 3,4′-cyclic sodium phosphate, Pyridoxine 3,4′-cyclic sodium phosphate]	no coloring was observed
Cc1ncc(CO)c(CO)c1O[C@@H]1O[C@H](CO)[C@@H](O)[C@H](O)[C@H]1O.Cl [pyridoxine 3-β-D-glucoside hydrochloride]	no coloring was observed
